Data origin, for the record: PubChem BioAssay (NCI)

Test system: UACC-257 melanoma
Assay: NCI-60 one-dose screen, 48 h (100 = growth as untreated, 0 = no growth, -100 = all killed)
Conditions: 10 µM unless noted
This is part of a sample that, as a whole, favours compounds with a hit. Of some 83,000 tested, about 20% had one in any assay.
MEASURE_NAME: growth (%)

>>> df
                                smiles_repr  measure_name  units   val
0  O=S(=O)(Nc1cc(F)cc(F)c1)c1ccc(-c2cnc(C3CC3)o2)cc1        growth      %  62.7
1  COc1ccc2[nH]cc(-c3nonc3-c3c[nH]c4ccc(Br)cc34)c2c1        growth      %  64.2
2  COC(=O)c1sccc1-c1cc(O)c(C(=O)Nc2ccccc2)s1        growth      %  91.6
3  C=C1SC(=Nc2ccccc2Cl)N(C(=O)c2sc3ccccc3c2Cl)C1(C)C        growth      %  98.4

====

Tested on: MALME-3M melanoma
Experiment: NCI-60 one-dose screen, 48 h (100 = growth as untreated, 0 = no growth, -100 = all killed)
Settings: 10 µM unless noted
About 83,000 compounds went through this panel and 20% of them were active in at least one assay; those are over-represented in the sample as a whole.
Quick reference for growth among some compounds

COMPOUND	SYSTEM_UNDER_TEST	UNITS	growth
CC[C@@H](C(=O)[C@@H](C)[C@@H](O)[C@H](C)[C@@H]1O[C@@H]([C@@H](CC)C(=O)ONC(=O)c2ccccc2O)CC[C@@H]1C)C1O[C@]2(C=CC(=O)[C@]3(CC[C@@](C)([C@H]4CC[C@](O)(CC)[C@H](C)O4)O3)O2)[C@H](C)C[C@@H]1C (some centres undefined)	MALME-3M melanoma	%	4.34
O=C(N/N=C/c1ccc(Cl)cc1)c1ccc(NC(=O)c2ccccn2)cc1	MALME-3M melanoma	%	44.9
O=C(Nc1cccnc1Nc1ccc(Cl)cc1)c1cn(Cc2cccc(Oc3ccccc3)c2)nn1	MALME-3M melanoma	%	58
CN1C(=O)/C(=C/c2ccc(C(=O)Nc3ncc(Cc4cc(Cl)ccc4Cl)s3)cc2)SC1=S	MALME-3M melanoma	%	69.4
Cc1ccc(-c2csc(NC(=O)CSc3nc(N)cc(N)n3)n2)cc1	MALME-3M melanoma	%	57.9
COCCn1cc(-c2csc(-c3c[nH]c4ccc(F)cc34)n2)c2cccnc21	MALME-3M melanoma	%	45
CC(=O)N1N=C(c2ccc(Nc3nc(Nc4ccc(F)cc4)nc(Nc4ccc(F)cc4)n3)cc2)CC1c1ccc(N(C)C)cc1 (centres undefined)	MALME-3M melanoma	%	42.1
Cc1nc2sc(C(=O)Nc3ccccn3)c(N)c2cc1C(C)O (centres undefined)	MALME-3M melanoma	%	97.9
O=C(NNc1nc2cc(F)ccc2n2c(CN3CCOCC3)ccc12)c1ccccc1	MALME-3M melanoma	%	8.12
Cc1cccc(N=Nc2cccc(C)c2)c1	MALME-3M melanoma	%	100
CS(=O)/C(C#N)=C\C=C\c1cccc(Cl)c1 (centres undefined)	MALME-3M melanoma	%	34.7
O=C(Cc1ccc(/C=C/C(=O)c2ncc[nH]2)cc1)Nc1cc(F)c(F)c(F)c1	MALME-3M melanoma	%	93.7
O=C(CSc1nnnn1-c1ccccc1)Nc1ccc(Oc2ccccc2)cc1	MALME-3M melanoma	%	133
O=c1cc(C(F)(F)F)c2cc(-c3cc4ccccc4c(=O)o3)c(O)cc2o1	MALME-3M melanoma	%	91.5
COc1cc(C=C2C(=O)NC(=S)NC2=O)cc(CN2CCCC2)c1O	MALME-3M melanoma	%	108
COc1c2c(cc3c1C(=O)N[C@@H]1[C@@H](O)[C@@H](O)[C@H](O)C[C@@H]31)OCCO2	MALME-3M melanoma	%	106
O=C(O)CC(C(=O)O)/C(=C\c1ccccc1)c1ccccc1 (centres undefined)	MALME-3M melanoma	%	117
CCN(CC)CCCNc1cc(OC)c(OC)c2cccnc12	MALME-3M melanoma	%	90.3
O=C(CCCCCCCC(=O)N1CCCCC1)N1CCCCC1	MALME-3M melanoma	%	115
Cc1ccc2c(c1)sc1nc(-c3c[nH]c4ccccc34)c(Nc3ccccc3)n12	MALME-3M melanoma	%	101
CCOC(=O)C/C(=N\Nc1cc(=O)[nH]c2ccc(C)cc12)C(=O)OCC	MALME-3M melanoma	%	98
Nc1cccc(-c2ccc(COc3ccc(CC4SC(=O)NC4=O)cc3)cc2)c1 (centres undefined)	MALME-3M melanoma	%	42.5
CCOC(=O)c1c(C)nc2ccccc2c1/C=C/c1ccc(F)cc1	MALME-3M melanoma	%	98.7
CCOC(=O)CC[C@H](NC(=O)c1ccc(N(C)Cc2cnc3nc(N)nc(N)c3n2)c2ccccc12)C(=O)OCC	MALME-3M melanoma	%	62.1
O=C1c2cccnc2C(=O)c2c1c(C(=O)OCCc1ccccn1)c1ccccn21	MALME-3M melanoma	%	-57.5
C=CN(C(=O)N1CCN(c2cc3c(cc2F)c(=O)c(C(=O)O)cn3C2CC2)CC1)c1nc(-c2ccc(Cl)cc2)cs1	MALME-3M melanoma	%	89.9
O=C(NCCCCO)c1cncnc1Nc1ccc2c(ccn2Cc2cccc(F)c2)c1	MALME-3M melanoma	%	93.9
O=C(Nc1nc(Cl)nc(Nc2ccc(N3CCOCC3=O)cc2)n1)c1ccc(Cl)s1	MALME-3M melanoma	%	88.3
COc1ccc(-c2cn(Cc3cc4ccccc4s3)nn2)cc1OCCN1CCCCC1	MALME-3M melanoma	%	5.75
C[N+]1=C(/C=C/c2ccccc2Cl)C(C)(C)c2ccccc21	MALME-3M melanoma	%	98.4
O=C(/C=C/c1cccc(Oc2ccccc2)c1)c1ccc(Nc2nc(Nc3ccc(F)cc3)nc(Nc3ccc(Cl)cc3)n2)cc1	MALME-3M melanoma	%	90.4
CSc1nc(-c2ccco2)c(C#N)c(=O)n1C	MALME-3M melanoma	%	88.8
CN(C)CCCNC(=O)c1cncnc1Nc1ccc2c(ccn2Cc2cccc(F)c2)c1	MALME-3M melanoma	%	81.9
COc1ccc(C/C(C)=C(\c2ccc(Cl)cc2)c2ccc(OCCCN(C)C)cc2)cc1	MALME-3M melanoma	%	80
